biological target: Human TREM2 (Homo sapiens); construct: expressed in transfected cells; assay: Human TREM2 activity: cellular phosphorylation of Syk (AlphaLISA SureFire Ultra p-SYK) in HEK293/DAP12+TREM2 stable cell line; format: cell-based; settings: phospho-Syk AlphaLISA signal, HEK293/DAP12+TREM2 cells; concentration giving 50% of maximal response; read-out: EC50
Reported EC50 is given for each of the following compounds.

Cc1nc2c(-c3cc(F)c(F)cc3F)nc(N3CCO[C@@H](c4cnn(C5CC5)c4)C3)cc2c(=O)n1C (single isomer, unassigned) [Example 133B]
100 to 1000 nM

Entry Cc1nc2c(-c3ccc(Cl)cc3F)nc([C@@]34CCO[C@@H](c5cnn(C6CC6)c5)[C@@H]3C4)nc2c(=O)n1C (single isomer, unassigned) [Example 116B] : reported EC50 = ?
100 to 1000 nM

Item under review: Cc1nc2c(-c3ccc(Cl)cc3C#N)nc(N3CC(C)OC(c4cnn(C5CC5)c4)C3)cc2c(=O)n1C (stereo not drawn) . Reported EC50?
> 1000 nM

Form field: reported EC50 of Cc1nc2c(-c3ccc(Cl)cc3F)nc(N3CCOC(C(=O)N(C)C)C3)nc2c(=O)n1C (stereo not drawn)
> 1000 nM

Suppose we examine the compound Cc1nc2c(-c3ccc(Cl)cc3F)nc(N3CCO[C@H](c4cnn(C5CC5)c4)C3)cc2c(=O)n1C (single isomer, unassigned) [Example 131A] ; what EC50 value has been reported?
1 to 10 nM

Give its EC50 value. Item: Cc1nc2c(-c3ccc(C(F)(F)F)cc3F)nc(N3CCO[C@@H](c4cnn(C)c4)C3)nc2c(=O)n1C (single isomer, unassigned) [Example 25B]
10 to 100 nM

* * *

The entries below are paired with their reported Emax.
biological target: Human TREM2 (Homo sapiens, UniProt Q9NZC2); construct: expressed in transfected cells; assay: Human TREM2 activity: cellular phosphorylation of Syk (AlphaLISA SureFire Ultra p-SYK) in HEK293/DAP12+TREM2 stable cell line; format: cell-based; conditions: HEK293; maximal response relative to reference agonist example 1B (remaining examples); read-out: Emax
Sequence (Q9NZC2 19-230): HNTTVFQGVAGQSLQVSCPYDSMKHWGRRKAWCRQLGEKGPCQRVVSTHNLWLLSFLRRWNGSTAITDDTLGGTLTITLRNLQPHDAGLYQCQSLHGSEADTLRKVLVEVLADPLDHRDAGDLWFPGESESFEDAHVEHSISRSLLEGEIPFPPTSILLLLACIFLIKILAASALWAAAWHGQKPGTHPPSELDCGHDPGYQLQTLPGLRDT
Sequence (O43914 22-113 partner): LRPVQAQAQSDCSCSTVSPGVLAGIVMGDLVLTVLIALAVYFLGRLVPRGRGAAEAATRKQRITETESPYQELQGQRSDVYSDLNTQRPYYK

Examples with answers:
C[C@@H]1CN(c2cc3c(=O)n(C)c(C(F)(F)F)nc3c(-c3ccc(F)cc3F)n2)C[C@H](c2cnn(C3CC3)c2)O1 (single isomer, unassigned) [Example 193B]
< 75%
Cc1cc([C@@H]2CN(c3cc4c(=O)n(C)c(C)nc4c(-c4ccc(F)cc4F)n3)CC(C)(C)O2)ccn1 (single isomer, unassigned) [Example 159A]
75 to 110%

Query: Emax; subject: Cc1nc2c(-c3ccc(Cl)cc3F)nc(N3CC(c4cnn(C)c4)OC4(CC4)C3)c(F)c2c(=O)n1C (stereo not drawn)
< 75%

* * *

The following compounds are shown together with reported Emax values.
biological target: Human TREM2 (Homo sapiens, UniProt Q9NZC2); construct: expressed in transfected cells; experiment: Human TREM2 activity: cellular phosphorylation of Syk (AlphaLISA SureFire Ultra p-SYK) in HEK293/DAP12+TREM2 stable cell line; assay type: cell-based; details: HEK293; maximal response relative to reference agonist example 1B (remaining examples); read-out: Emax

Examples with their reported Emax follow.
COCCN1CCN(c2nc(-c3ccc(Cl)cc3F)c3nc(C)n(C)c(=O)c3n2)CC1c1cnn(C)c1 (stereo not drawn) [Example 34]
< 75%
Cc1nc2c(-c3ccc(C(F)(F)F)nc3)nc([C@@H]3CCO[C@H](c4cnn(C)c4)C3)nc2c(=O)n1C (single isomer, unassigned) [Example 88A]
< 75%
Cc1nc2c(-c3ccc(Cl)cc3F)nc(N3CCN(CC(F)(F)F)C(c4cnn(C)c4)C3)nc2c(=O)n1C (stereo not drawn) [Example 33]
< 75%
Cc1nc2c(-c3ccc(C(F)(F)F)cc3F)nc([C@H]3CCO[C@@H](c4cnn(C5CC5)c4)C3)cc2c(=O)n1C (single isomer, unassigned) [Example 153B]
< 75%
Cc1nc2c(-c3ccc(F)cc3F)nc(N3CCO[C@H](c4cnn(C)c4)C3)cc2c(=O)n1C (single isomer, unassigned) [Example 129B]
< 75%

Turning to the following compound.
Lab note: need Emax with Human TREM2 (Homo sapiens, UniProt Q9NZC2) for entry Cc1cc([C@@H]2CN(c3cc4c(=O)n(C)c(C)nc4c(-c4cc(F)c(F)cc4F)n3)CCO2)ccn1 (single isomer, unassigned) [Example 141A] , please look it up.
75 to 110%

* * *

target: Human TREM2 (Homo sapiens); construct: expressed in transfected cells; assay: Human TREM2 activity: cellular phosphorylation of Syk (AlphaLISA SureFire Ultra p-SYK) in HEK293/DAP12+TREM2 stable cell line; assay type: cell-based; conditions: phospho-Syk AlphaLISA signal, HEK293/DAP12+TREM2 cells; concentration giving 50% of maximal response; read-out: EC50
pEC50: −log10 of the molar value.
The molecules listed here are annotated with their pEC50.

Worked cases, answers included:
Cc1nc2c(-c3ccc(Cl)cc3F)nc(N3CC(c4cnn(C)c4)OC(C)(C)C3)nc2c(=O)n1C (stereo not drawn)
8.00 to 9.00
Cc1nc2c(-c3ccc(C(F)(F)F)nc3)nc(N3C[C@@H](c4cnn(C5CC5)c4)O[C@@H](C)C3)cc2c(=O)n1C (single isomer, unassigned) [Example 184A]
8.00 to 9.00
Cc1cc([C@@H]2CN(c3nc(-c4ccc(C(F)(F)F)cc4F)c4nc(C)n(C)c(=O)c4n3)CCO2)ccn1 (single isomer, unassigned) [Example 21A]
7.00 to 8.00

Would you mind telling me what pEC50 value was observed for Cn1c(C(F)(F)F)nc2c(-c3ccc(F)cc3F)nc([C@H]3CCO[C@@H](c4cnn(C5CC5)c4)C3)cc2c1=O (single isomer, unassigned) [Example 197B] ?
8.00 to 9.00

// pEC50 lookup, key: Cc1cc([C@H]2CN(c3cc4c(=O)n(C)c(C)nc4c(-c4ccc(F)cc4F)n3)CC(C)(C)O2)ccn1 (single isomer, unassigned) [Example 159B]
6.00 to 7.00

What measured pEC50 goes with Cc1nc2c(-c3ccc(C(F)(F)F)cc3C#N)nc(N3C[C@@H](c4cnn(C5CC5)c4)O[C@@H](C)C3)cc2c(=O)n1C (single isomer, unassigned) [Example 202A] ?
< 6.00

* * *

target: Human TREM2 (Homo sapiens); construct: expressed in transfected cells; assay: Human TREM2 activity: cellular phosphorylation of Syk (AlphaLISA SureFire Ultra p-SYK) in HEK293/DAP12+TREM2 stable cell line; assay type: cell-based; conditions: phospho-Syk AlphaLISA signal, HEK293/DAP12+TREM2 cells; concentration giving 50% of maximal response; read-out: EC50
parameter-measured: EC50

Use these answered entries as a reference point.
Cc1cc([C@H]2CN(c3cc4c(=O)n(C)c(C)nc4c(-c4ccc(F)cc4F)n3)CC(F)(F)O2)ccn1 (single isomer, unassigned) [Example 171B]
100 to 1000 nM
Cc1nc2c(-c3ccc(Cl)cc3F)nc(N3C[C@@H](c4cnn(C5CC5)c4)O[C@@H](C)C3)nc2c(=O)n1C (single isomer, unassigned) [Example 178A]
1 to 10 nM
Cc1nc2c(-c3ccc(F)cc3F)nc(N3C[C@@H](c4cnn(C)c4)OC(C)(C)C3)nc2c(=O)n1C (single isomer, unassigned) [Example 121A]
100 to 1000 nM
Cc1nc2c(-c3cc(F)c(F)cc3F)nc(N3CCO[C@H](c4cnn(C)c4)C3)cc2c(=O)n1C (single isomer, unassigned) [Example 130B]
100 to 1000 nM
Cc1cc([C@@H]2CN(c3nc(-c4ccc(Cl)cc4F)c4nc(C)n(C)c(=O)c4n3)C[C@H](C)O2)ccn1 (single isomer, unassigned) [Example 176A]
< 1 nM

Which EC50 value is on record for Cc1cc([C@@H]2CN(c3nc(-c4cc(F)c(F)cc4F)c4nc(C(F)(F)F)n(C)c(=O)c4n3)CCO2)ccn1 (single isomer, unassigned) [Example 155A] ?
< 1 nM

Data request, read-out EC50, for Cc1nc2c(-c3ccc(Cl)cc3F)nc(N3C[C@H](c4cnn(C)c4)OC(F)(F)C3)nc2c(=O)n1C (single isomer, unassigned) [Example 149B]
10 to 100 nM

I would be grateful if you could share the reported EC50 for Cc1nc2c(-c3ccc(Cl)cc3F)nc(N3CCOC(CN(C)C)C3)nc2c(=O)n1C (stereo not drawn) [Example 53] .
100 to 1000 nM

* * *

biological target: Human TREM2 (Homo sapiens, UniProt Q9NZC2); construct: expressed in transfected cells; assay: Human TREM2 activity: cellular phosphorylation of Syk (AlphaLISA SureFire Ultra p-SYK) in HEK293/DAP12+TREM2 stable cell line; assay type: cell-based; conditions: HEK293; maximal response relative to reference agonist example 1B (remaining examples); read-out: Emax
parameter-measured: Emax

Cc1cc([C@H]2CN(c3cc4c(=O)n(C)c(C)nc4c(-c4ccc(C(F)F)nc4)n3)CC(C)(C)O2)ccn1 (single isomer, unassigned) [Example 180B]
< 75%
Cc1nc2c(-c3ccc(Cl)cc3F)nc(N3CCO[C@@H](c4cnn(C5CC5)c4)C3)cc2c(=O)n1C (single isomer, unassigned) [Example 131B]
< 75%

Now for a further molecule.
I have this molecule here, Cc1cc([C@H]2CN(c3nc(-c4ccc(C(F)(F)F)nc4)c4nc(C)n(C)c(=O)c4n3)CC(C)(C)O2)ccn1 (single isomer, unassigned) [Example 164B] , and I need its recorded Emax.
< 75%
